Cited source for all entries: patent US20240158446A1

# Measured target: UniProtKB P01116
# Test method notes: Binding to KRAS by surface plasmon resonance (SPR), Single Cycle Kinetics
# Conditions used: SPR, Single Cycle Kinetics, 1:1 binding model; read-out: KD value with respect to GDP-bound KRAS wild-type protein
pKd: −log10 of the molar value.
The following molecules are shown together with reported pKd values.

Query smiles	Measured target	pKd
CCC[C@H]1C(=O)N[C@@H]([C@@H](C)CC)C(=O)N(C2CC2)CC(=O)N(C)[C@H]2C/C=C\CCN(C2=O)[C@@H](Cc2ccc(C(F)(F)F)cc2)C(=O)N(C)CC(=O)N[C@@H](CCc2ccc(C(F)(F)F)c(OC)c2)C(=O)N2C[C@H](OCC)C[C@H]2C(=O)N(C)C2(CCC2)C(=O)N(C)[C@@H](C2CCCC2)C(=O)N(C)[C@H](C(=O)N2CCCC2)CC(=O)N1C	UniProtKB P01116	9.42
CCC[C@H]1C(=O)N[C@@H]([C@@H](C)CC)C(=O)N(C2CC2)CC(=O)N(C)[C@H]2C/C=C\CCN(C2=O)[C@@H](Cc2ccc(C(F)(F)F)cc2)C(=O)N(C)CC(=O)N[C@@H](CCc2cc(F)c(C(F)(F)F)c(F)c2)C(=O)N2C[C@H](OCC)C[C@H]2C(=O)N(C)C2(CCC2)C(=O)N(C)[C@@H](C2CCCC2)C(=O)N(C)[C@H](C(=O)N2CCCCC2)CC(=O)N1C	UniProtKB P01116	8.37
CC[C@H](C)[C@@H]1NC(=O)[C@@H]2CCCCc3ccc(cc3)C[C@@H](C(=O)N(C)CC(=O)N[C@@H](CCc3ccc(C(F)(F)F)c(OC)c3)C(=O)N3CC4(CC4)C[C@H]3C(=O)NC3(CC(C)(C)C3)C(=O)N(C)[C@@H](C3CCCC3)C(=O)N(C)[C@H](C(=O)N(C)CC)CC(=O)N2C)N2CC/C=C\C[C@@H](C2=O)N(C)C(=O)CN(C)C1=O	UniProtKB P01116	10.17
CCC[C@H]1C(=O)N[C@@H]([C@@H](C)CC)C(=O)N(C2CC2)CC(=O)N(C)[C@H]2C/C=C\CCN(C2=O)[C@@H](Cc2ccc(C)cc2)C(=O)N(C)CC(=O)N[C@@H](CCc2ccc(C(F)(F)F)c(OC)c2)C(=O)N2C[C@H](OCC)C[C@H]2C(=O)N(C)C2(CCC2)C(=O)N(C)[C@@H](C2CCCC2)C(=O)N(C)[C@H](C(=O)N2CCCC2)CC(=O)N1C	UniProtKB P01116	9.62
CCC[C@H]1C(=O)N[C@@H]([C@@H](C)CC)C(=O)N(C)CC(=O)N(C)[C@H]2C/C=C\CCN(C2=O)[C@@H](Cc2ccc(C(F)(F)F)cc2)C(=O)N(C)CC(=O)N[C@@H](CCc2ccc(C(F)(F)F)c(OC)c2)C(=O)N2C[C@H](OCC)C[C@H]2C(=O)N(C)C2(CCC2)C(=O)N(C)[C@@H](C2CCCC2)C(=O)N(C)[C@H](C(=O)N2CCCCC2)CC(=O)N1C	UniProtKB P01116	9.68
CCC[C@H]1C(=O)N[C@@H]([C@@H](C)CC)C(=O)N(C2CC2)CC(=O)N(C)[C@H]2C/C=C\CCN(C2=O)[C@@H](Cc2ccc(C)cc2)C(=O)N(C)CC(=O)N[C@@H](CCc2cc(F)c(C(F)(F)F)c(F)c2)C(=O)N2C[C@H](OCC)C[C@H]2C(=O)N(C)C2(CCC2)C(=O)N(C)[C@@H](C2CCCC2)C(=O)N(C)[C@H](C(=O)N2CCCC2)CC(=O)N1C	UniProtKB P01116	9.77

====

# Measured target: GDP-bound KRAS wild-type protein (Homo sapiens, UniProt P01116)
# Sequence (P01116 whole entry): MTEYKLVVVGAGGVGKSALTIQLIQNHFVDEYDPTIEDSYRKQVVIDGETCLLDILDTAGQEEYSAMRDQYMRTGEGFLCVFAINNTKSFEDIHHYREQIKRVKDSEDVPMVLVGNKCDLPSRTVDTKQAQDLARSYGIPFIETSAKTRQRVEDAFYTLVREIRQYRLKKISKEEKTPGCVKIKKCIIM
# Test method notes: Binding to KRAS by surface plasmon resonance (SPR), Single Cycle Kinetics
# Conditions used: SPR, Single Cycle Kinetics, 1:1 binding model; GDP-bound KRAS wild-type protein; read-out: KRAS KD
Measurement label: Kd

Query smiles	Recorded value
CCO[C@@H]1C[C@H]2C(=O)NC3(CCC3)C(=O)N(C)[C@@H](C3CCCC3)C(=O)N(C)[C@H](C)CC(=O)N(C)[C@@H](CC3CC3)C(=O)N[C@@H]([C@@H](C)CC)C(=O)N(C)CC(=O)N(C)[C@H]3C/C=C\CCN(C3=O)[C@@H](Cc3ccc(F)cc3)C(=O)N(C)CC(=O)N[C@@H](CCc3cc(F)c(C(F)(F)F)c(F)c3)C(=O)N2C1	600 pM
CC[C@H](C)[C@@H]1NC(=O)[C@H](CC)N(C)C(=O)C[C@@H](C(=O)N(C)C)N(C)C(=O)[C@H](C2CCCC2)N(C)C(=O)C2(CCC2)NC(=O)[C@@H]2C[C@@H](C(F)(F)F)CN2C(=O)[C@H](CCc2cc(F)c(C(F)(F)F)c(F)c2)NC(=O)CN(C)C(=O)[C@H](CC2CCCCC2)N2CC/C=C\C[C@@H](C2=O)N(C)C(=O)CN(C)C1=O	360 pM

====

The following molecules are shown together with reported Kd values.
# Measured target: GDP-bound KRAS wild-type protein (Homo sapiens)
# Test method notes: Binding to KRAS by surface plasmon resonance (SPR), Single Cycle Kinetics
# Conditions used: SPR, Single Cycle Kinetics, GDP-bound KRAS wild-type protein; read-out: KRAS KD
*1 amine or outer side, *2 acyl side, *3 side chain or, on linkers, in order; H or OH if unused. Where a SMILES comes first, the peptide text is derived from it. Bridges are numbered along the chain shown (N, C = ends). [ ]: non-standard residue; d: D form. The star is where a group is joined. hPhe(3-Cl-4-CF3) = N[C@@H](CCc1ccc(C(F)(F)F)c(Cl)c1)C(=O)O; NPrPhe(4-CF3) = CCCN[C@@H](Cc1ccc(C(F)(F)F)cc1)C(=O)O; NEtAsp = CCN([C@@H](CC(=O)[*:3])C(=O)[*:2])[*:1]; NMeGly(cPent) = CN[C@H](C(=O)O)C1CCCC1; NMeI = CC[C@H](C)[C@H](NC)C(=O)O; NMeD = CN[C@@H](CC(=O)O)C(=O)O; NMeL = CN[C@@H](CC(C)C)C(=O)O; Morpholide = C1CN(*)CCO1; Ac5c = NC1(C(=O)O)CCCC1; Sar = CNCC(=O)O

Molecule	Kd (nM)
CCCN(C)C(=O)[C@@H]1CC(=O)N(C)[C@@H](CCOC)C(=O)N[C@@H]([C@@H](C)CC)C(=O)N(C)CC(=O)N(C)[C@H]2C/C=C\CCN(C2=O)[C@@H](Cc2ccc(C(F)(F)F)cc2)C(=O)N(C)CC(=O)N[C@@H](CCc2ccc(C(F)(F)F)c(OC)c2)C(=O)N2C[C@H](OCC)C[C@H]2C(=O)NC2(CCC2)C(=O)N(C)[C@@H](C2CCCC2)C(=O)N1C [PP2018]	0.1
CCOC[C@H]1C(=O)N[C@@H]([C@@H](C)CC)C(=O)N2CCC[C@H]2C(=O)N(C)[C@H]2C/C=C\CCN(C2=O)[C@@H](CC2CCCCC2)C(=O)N(C)CC(=O)N[C@@H](CCc2ccc(C(F)(F)F)c(OC)c2)C(=O)N2C[C@@H](C)C[C@H]2C(=O)N(C)C2(CCC2)C(=O)N(C)[C@@H](C2CCCC2)C(=O)N(C)[C@H](C(=O)N(C)C)CC(=O)N1C [PP2375]	1.1
CCCN1C(=O)CN(C)C(=O)CNC(=O)[C@H]([C@@H](C)CC)NC(=O)[C@H](CC(C)C)N(C)C(=O)C[C@@H](C(=O)N2CCOCC2)N(CC)C(=O)[C@H](C2CCCC2)N(C)C(=O)C2(CCCC2)NC(=O)[C@@H]2CCCN2C(=O)[C@H](CCc2ccc(C(F)(F)F)c(Cl)c2)NC(=O)CN(C)C(=O)[C@@H]1Cc1ccc(C(F)(F)F)cc1 [PP1970] ([NMeL]IG[Sar][NPrPhe(4-CF3)][Sar][hPhe(3-Cl-4-CF3)]P[Ac5c][NMeGly(cPent)][NEtAsp]-Morpholide; lactam N-11)	0.62
CCO[C@@H]1C[C@H]2C(=O)NC3(CCC3)C(=O)N(C)[C@@H](C3CCCC3)C(=O)N3CCC[C@@H]3CC(=O)N(C)[C@@H](CC3CC3)C(=O)N[C@@H]([C@@H](C)CC)C(=O)N(C)CC(=O)N(C)[C@H]3C/C=C\CCN(C3=O)[C@@H](Cc3ccc(C(F)(F)F)cc3)C(=O)N(C)CC(=O)N[C@@H](CCc3ccc(C(F)(F)F)c(OC)c3)C(=O)N2C1 [PP1616]	0.29
CCCN1C(=O)CN(C)C(=O)CN(C)C(=O)[C@H]([C@@H](C)CC)NC(=O)[C@H](CC(C)C)N(C)C(=O)C[C@@H](C(=O)N2CCOCC2)N(C)C(=O)[C@H]([C@@H](C)CC)N(C)C(=O)C2(CCCC2)NC(=O)[C@@H]2CCCN2C(=O)[C@H](CCc2ccc(C(F)(F)F)c(Cl)c2)NC(=O)CN(C)C(=O)[C@@H]1Cc1ccc(C(F)(F)F)cc1 [PP1926] ([NMeL]I[Sar][Sar][NPrPhe(4-CF3)][Sar][hPhe(3-Cl-4-CF3)]P[Ac5c][NMeI][NMeD]-Morpholide; lactam N-11)	0.36
